Where do these numbers come from? They come from paper PMC3416963.

Substrate: O=C(O)c1cc(C(=O)O)oc(=O)c1
protocol.text: purified protein
Type: biochemical, Sphingobium sp. SYK-6
measurement.conditions: 50 mM BICINE pH 8.25, 30 °C
Below, each entry is listed alongside its reported kcat/Km.

protein: LigI (Sphingobium sp. SYK-6; H178A) (protein) TNDERILSWNETPSKPRYTPPPGAIDAHCHVFGPMAQFPFSPKAKYLPRDAGPDMLFALRDHLGFARNVIVQASCHGTDNAATLDAIARAQGKARGIAVVDPAIDEAELAALHEGGMRGIRFNFLKRLVDDAPKDKFLEVAGRLPAGWHVVIYFEADILEELRPFMDAIPVPIVIDAMGRPDVRQGPDGADMKAFRRLLDSREDIWFKATCPDRLDPAGPPWDDFARSVAPLVADYADRVIWGTDWPHPNMQDAIPDDGLVVDMIPRIAPTPELQHKMLVTNPMRLYWSEEM
kcat/Km: 37000 M⁻¹ s⁻¹

Supply kcat/Km value. Item: LigI (Sphingobium sp. SYK-6; R128M) (protein) TNDERILSWNETPSKPRYTPPPGAIDAHCHVFGPMAQFPFSPKAKYLPRDAGPDMLFALRDHLGFARNVIVQASCHGTDNAATLDAIARAQGKARGIAVVDPAIDEAELAALHEGGMRGIRFNFLKMLVDDAPKDKFLEVAGRLPAGWHVVIYFEADILEELRPFMDAIPVPIVIDHMGRPDVRQGPDGADMKAFRRLLDSREDIWFKATCPDRLDPAGPPWDDFARSVAPLVADYADRVIWGTDWPHPNMQDAIPDDGLVVDMIPRIAPTPELQHKMLVTNPMRLYWSEEM 11000 M⁻¹ s⁻¹
